system: Enterococcus faecalis; experiment: MIC and FIC index, microtiter checkerboard / broth dilution; format: cell-based; settings: Ent. faecalis; antibiotic alone
Parameter: MIC Individually Administered, antibiotic (µg/mL)
# value in µg/mL; strip the unit string

Take a look at these entries with their results.
Bench note: what MIC Individually Administered, antibiotic did CC1(C)S[C@@H]2[C@H](NC(=O)[C@H](N)c3ccccc3)C(=O)N2[C@H]1C(=O)O [Ampicillin, ampicillin] show?
1

What about O=C(N[C@H](CO)[C@H](O)c1ccc([N+](=O)[O-])cc1)C(Cl)Cl [Chloramphenicol, chloramphenicol] ?
400

What about NCC[C@H](O)C(=O)N[C@@H]1C[C@H](N)[C@@H](O[C@H]2O[C@H](CN)[C@@H](O)[C@H](O)[C@H]2O)[C@H](O)[C@H]1O[C@H]1O[C@H](CO)[C@@H](O)[C@H](N)[C@H]1O [Amikacin, amikacin] ?
2000

Now for another entry.
Bench note: what MIC Individually Administered, antibiotic did CN(C)[C@@H]1C(O)=C(C(N)=O)C(=O)[C@@]2(O)C(O)=C3C(=O)c4c(O)cccc4[C@@](C)(O)[C@H]3[C@H](O)[C@@H]12 [Oxytetracycline, oxytetracycline] show?
50

###

The molecules listed here are annotated with their Summary % reduction in MIC 50 using Tricide.
tested on: Aspergillus sp.; test: Antifungal MIC 50 / MIC 90 alone and combined with Tricide; type: cell-based; conditions: Aspergiullus sp.
# value in %; strip the unit string

Take a look at these entries with their results.
Bench note: what Summary % reduction in MIC 50 using Tricide did C[C@@H]1C/C=C/C=C/C=C/C=C/[C@H](O[C@@H]2O[C@H](C)[C@@H](O)[C@H](N)[C@@H]2O)C[C@@H]2O[C@](O)(C[C@@H](O)C[C@H]3O[C@@H]3/C=C/C(=O)O1)C[C@H](O)[C@H]2C(=O)O [Natamycin, natamycin] show?
100

What about Clc1ccc(COC(Cn2ccnc2)c2ccc(Cl)cc2Cl)c(Cl)c1 (stereo not shown) [Miconazole, miconazole] ?
96

What about CC(=O)N1CCN(c2ccc(OCC3COC(Cn4ccnc4)(c4ccc(Cl)cc4Cl)O3)cc2)CC1 (stereo not shown) [Ketoconazole, ketoconazole] ?
87.5

Now for another entry.
Bench note: what Summary % reduction in MIC 50 using Tricide did CCC(C)n1ncn(-c2ccc(N3CCN(c4ccc(OCC5COC(Cn6cncn6)(c6ccc(Cl)cc6Cl)O5)cc4)CC3)cc2)c1=O (stereo not shown) [Itraconazole, itraconazole] show?
84

###

test system: Paecilomyces variotti ATCC 36257; experiment: Antifungal MIC 50 / MIC 90 alone and combined with Tricide; type: cell-based; details: Paecilomyces variotti ATCC36257
Parameter: Summary % reduction in MIC 50 using Tricide (%)
# value in %; strip the unit string

Bench note: what Summary % reduction in MIC 50 using Tricide did CC(=O)N1CCN(c2ccc(OCC3COC(Cn4ccnc4)(c4ccc(Cl)cc4Cl)O3)cc2)CC1 (stereo not shown) show?
100

---
Bench note: what Summary % reduction in MIC 50 using Tricide did Clc1ccc(COC(Cn2ccnc2)c2ccc(Cl)cc2Cl)c(Cl)c1 (stereo not shown) show?
97.4

What about CCC(C)n1ncn(-c2ccc(N3CCN(c4ccc(OCC5COC(Cn6cncn6)(c6ccc(Cl)cc6Cl)O5)cc4)CC3)cc2)c1=O (stereo not shown) ?
95
